These entries and their values trace back to patent US7868135B2.

System: Enterococcus faecalis EFS0004 (VSE)
ASSAY METHOD TEXT: Broad spectrum MIC, Table 17/18 B, C, D (CAMHB; + 0.625 mM calcium; + calcium and 30% bovine serum)
Assay type: cell-based
CONDITION SUMMARY: condition B: CAMHB, in µg/mL

{"columns": ["COMPOUND", "TARGET ENTITY", "MIC, media condition B"],
 "data": [
  ["CCCCCCCCCCCCCCC(=O)NC(CC(=O)O)C(=O)NC1C(=O)N2CCCCC2C(=O)NC(C(C)C(=O)O)C(=O)NC(CC(=O)O)C(=O)NCC(=O)NC(CC(=O)O)C(=O)NCC(=O)NC(C(C)NC(=O)CNC(=O)[C@@H](C)N)C(=O)NC(C(C)C)C(=O)N2CCCC2C(=O)NC1C (stereo partly shown)", "Enterococcus faecalis EFS0004 (VSE)", 8],
  ["CCCCCCCCCCCCCCNC(=O)NC(CC(=O)O)C(=O)NC1C(=O)N2CCCCC2C(=O)NC(C(C)C(=O)O)C(=O)NC(CC(=O)O)C(=O)NCC(=O)NC(CC(=O)O)C(=O)NCC(=O)NC(C(C)N)C(=O)NC(C(C)C)C(=O)N2CCCC2C(=O)NC1C (stereo not shown)", "Enterococcus faecalis EFS0004 (VSE)", 1],
  ["CCCCCCCCCCCCCCC(=O)NC(CC(=O)O)C(=O)NC1C(=O)N2CCCCC2C(=O)NC(C(C)C(=O)O)C(=O)NC(CC(=O)O)C(=O)NCC(=O)NC(CC(=O)O)C(=O)NCC(=O)NC(C(C)N)C(=O)NC(C(C)C)C(=O)N2CCCC2C(=O)NC1C (stereo not shown)", "Enterococcus faecalis EFS0004 (VSE)", 2]
]}

----------
Tested on: Staphylococcus aureus (MSSA)
CONDITION SUMMARY: 24 h
Protocol: (“Approved Standard M7-A3”). The antimicrobial lipopeptide derivatives described herein were tested for antimicrobial activity against Gram-positive bacteria as follows. The minimum inhibitory concentrations (MIC) of the antimicrobial lipopeptide derivatives of the invention were determined using NCCLS guidelines M7-A6 (2003) with a slight modification in that doubling serial dilutions were used to dilute the test compounds. The broth phase microdilution method was used. […]
Starred links: 1 amine or outer side, 2 acyl side, 3 side chain; linkers in the order of their positions; H or OH if unused. Positions of bridges follow the written chain, without caps; N, C: chain ends. Non-standard residues stand in square brackets, D forms with d. Residues, ends and D or L forms follow the SMILES beside them. ξ: configuration not given here. *: point of attachment. X10 = CC(C)=CCC/C(C)=C/C(=O)NC(C)C(N[*:1])C(=O)[*:2]; ξAbu(βξ-NH2) = CC(N[*:3])C(N[*:1])C(=O)[*:2]; Pentadecanoyl = CCCCCCCCCCCCCCC(=O)*; ξAsp(βξ-Me) = CC(C(=O)O)C(N)C(=O)O; X5 = CCCCCCCCCCCCn1cc(C(=O)*)nn1; ξAbu(3ξ-NH2) = CC(N)C(N)C(=O)O; Pip = O=C(O)[CH]1CCCCN1
ASSAY READOUT: MIC (µg/mL)

{"columns": ["COMPOUND", "TARGET ENTITY", "ASSAY READOUT", "READOUT VALUE"],
 "data": [
  ["CCCCCCCCCCCCCCC(=O)NC(CC(=O)O)C(=O)NC1C(=O)N2CCCCC2C(=O)NC(C(C)C(=O)O)C(=O)NC(CC(=O)O)C(=O)NCC(=O)NC(CC(=O)O)C(=O)NCC(=O)NC(C(C)NC(=O)CCNC(=O)CCCCN)C(=O)NC(C(C)C)C(=O)N2CCCC2C(=O)NC1C (stereo not drawn)", "Staphylococcus aureus (MSSA)", "MIC", 1],
  ["CCCCCCCCCCCCCCC(=O)NC(CC(=O)O)C(=O)NC1C(=O)N2CCCCC2C(=O)NC(C(C)C(=O)O)C(=O)NC(CC(=O)O)C(=O)NCC(=O)NC(CC(=O)O)C(=O)NCC(=O)NC(C(C)NC(=O)/C=C(\\C)CCC=C(C)C)C(=O)NC(C(C)C)C(=O)N2CCCC2C(=O)NC1C (stereo not drawn) [Compound 224, C15-Amphomycin-9-Geranyl] (Pentadecanoyl-D[ξAbu(βξ-NH2)][Pip][ξAsp(βξ-Me)]DGDG[X10]VP; lactam 2-C; configuration not given here)", "Staphylococcus aureus (MSSA)", "MIC", 8],
  ["CCCCCCCCCCCCCCC(=O)NC(CC(=O)O)C(=O)NC1C(=O)N2CCCCC2C(=O)NC(C(C)C(=O)O)C(=O)NC(CC(=O)O)C(=O)NCC(=O)NC(CC(=O)O)C(=O)NCC(=O)NC(C(C)NC(=O)[C@@H]2CCCCN2)C(=O)NC(C(C)C)C(=O)N2CCCC2C(=O)NC1C (stereo partly drawn)", "Staphylococcus aureus (MSSA)", "MIC", 2],
  ["CCCCCCCCCCCCCCC(=O)NC(CC(=O)O)C(=O)NC1C(=O)N2CCCCC2C(=O)NC(C(C)C(=O)O)C(=O)NC(CC(=O)O)C(=O)NCC(=O)NC(CC(=O)O)C(=O)NCC(=O)NC(C(C)NC(=O)[C@H](C)N)C(=O)NC(C(C)C)C(=O)N2CCCC2C(=O)NC1C (stereo partly drawn)", "Staphylococcus aureus (MSSA)", "MIC", 2],
  ["CCCCCCCCCCCCn1cc(C(=O)NC(CC(=O)O)C(=O)NC2C(=O)N3CCCCC3C(=O)NC(C(C)C(=O)O)C(=O)NC(CC(=O)O)C(=O)NCC(=O)NC(CC(=O)O)C(=O)NCC(=O)NC(C(C)N)C(=O)NC(C(C)C)C(=O)N3CCCC3C(=O)NC2C)nn1 (stereo not drawn) [Compound 309] (X5-D[ξAbu(βξ-NH2)][Pip][ξAsp(βξ-Me)]DGDG[ξAbu(3ξ-NH2)]VP; lactam 2-C; configuration not given here)", "Staphylococcus aureus (MSSA)", "MIC", 1],
  ["CCCCCCCCCCCCCCC(=O)NC(CC(=O)O)C(=O)NC1C(=O)N2CCCCC2C(=O)NC(C(C)C(=O)O)C(=O)NC(CC(=O)O)C(=O)NCC(=O)NC(CC(=O)O)C(=O)NCC(=O)NC(C(C)NC(=O)CCCCC)C(=O)NC(C(C)C)C(=O)N2CCCC2C(=O)NC1C (stereo not drawn)", "Staphylococcus aureus (MSSA)", "MIC", 32]
]}

----------
System: Staphylococcus aureus (MSSA)
CONDITION SUMMARY: 24 h
Starred links: 1 amine or outer side, 2 acyl side, 3 side chain; linkers in the order of their positions; H or OH if unused. Positions of bridges follow the written chain, without caps; N, C: chain ends. Non-standard residues stand in square brackets, D forms with d. Residues, ends and D or L forms follow the SMILES beside them. ξ: configuration not given here. *: point of attachment. ξAbu(βξ-NH2) = CC(N[*:3])C(N[*:1])C(=O)[*:2]; X8 = O=C(/C=C/c1ccc(N[*:1])cc1)[*:2]; ξAsp(βξ-Me) = CC(C(=O)O)C(N)C(=O)O; X1 = O=C(Cc1ccc(N[*:1])cc1)[*:2]; ξAbu(3ξ-NH2) = CC(N)C(N)C(=O)O; Lauroyl = CCCCCCCCCCCC(=O)*; Decanoyl = CCCCCCCCCC(=O)*; Pip = O=C(O)[CH]1CCCCN1
ASSAY READOUT: MIC

{"columns": ["COMPOUND", "READOUT VALUE"],
 "data": [
  ["CCCCCCCCCC(=O)Nc1ccc(CC(=O)NC(CC(=O)O)C(=O)NC2C(=O)N3CCCCC3C(=O)NC(C(C)C(=O)O)C(=O)NC(CC(=O)O)C(=O)NCC(=O)NC(CC(=O)O)C(=O)NCC(=O)NC(C(C)N)C(=O)NC(C(C)C)C(=O)N3CCCC3C(=O)NC2C)cc1 (stereo not drawn) [Compound 122, CH3—(CH2)9-(p-Apa)-Amphomycin] (Decanoyl-[X1]D[ξAbu(βξ-NH2)][Pip][ξAsp(βξ-Me)]DGDG[ξAbu(3ξ-NH2)]VP; lactam 3-C; configuration not given here; N-terminus assumed)", "8 µg/mL"],
  ["CCCCCCCCCCCC(=O)Nc1ccc(/C=C/C(=O)NC(CC(=O)O)C(=O)NC2C(=O)N3CCCCC3C(=O)NC(C(C)C(=O)O)C(=O)NC(CC(=O)O)C(=O)NCC(=O)NC(CC(=O)O)C(=O)NCC(=O)NC(C(C)N)C(=O)NC(C(C)C)C(=O)N3CCCC3C(=O)NC2C)cc1 (stereo not drawn) [Compound 120, C12-(p-Amino-Trans-Cinnamyl)-Amphomycin] (Lauroyl-[X8]D[ξAbu(βξ-NH2)][Pip][ξAsp(βξ-Me)]DGDG[ξAbu(3ξ-NH2)]VP; lactam 3-C; configuration not given here)", "0.5 µg/mL"]
]}

----------
Tested on: S. aureus Smith (SAU0017, ATCC 19636)
ASSAY METHOD TEXT: Intraperitoneal murine model of protection against infection (ED50, Table 21)
Assay type: in vivo, Staphylococcus aureus
CONDITION SUMMARY: Swiss CD1 mice infected i.p., compound i.v.
Starred links: 1 amine or outer side, 2 acyl side, 3 side chain; linkers in the order of their positions; H or OH if unused. Positions of bridges follow the written chain, without caps; N, C: chain ends. Non-standard residues stand in square brackets, D forms with d. Residues, ends and D or L forms follow the SMILES beside them. ξ: configuration not given here. *: point of attachment. ξAbu(βξ-NH2) = CC(N[*:3])C(N[*:1])C(=O)[*:2]; ξAsp(βξ-Me) = CC(C(=O)O)C(N)C(=O)O; X1 = O=C(Cc1ccc(N[*:1])cc1)[*:2]; ξAbu(3ξ-NH2) = CC(N)C(N)C(=O)O; Lauroyl = CCCCCCCCCCCC(=O)*; Pip = O=C(O)[CH]1CCCCN1
Decide using ED50 in Mice, S. aureus (SAU0017) alone. Strictly below 6 mg/kg: true. Equal to or above 6 mg/kg: false.

{"columns": ["COMPOUND", "CLASS LABEL"],
 "data": [
  ["CCCCCCCCCCCCC(=O)NC(CC(=O)O)C(=O)NC1C(=O)N2CCCCC2C(=O)NC(C(C)C(=O)O)C(=O)NC(CC(=O)O)C(=O)NCC(=O)NC(CC(=O)O)C(=O)NCC(=O)NC(C(C)NC(=O)CNC(=O)[C@@H](N)CCCCN)C(=O)NC(C(C)C)C(=O)N2CCCC2C(=O)NC1C (stereo partly drawn) [Compound 128, C13-Amphomycin-9-Gly-Lys]", "false"],
  ["CCCCCCCCCCCC(=O)Nc1ccc(C(=O)NC(CC(=O)O)C(=O)NC2C(=O)N3CCCCC3C(=O)NC(C(C)C(=O)O)C(=O)NC(CC(=O)O)C(=O)NCC(=O)NC(CC(=O)O)C(=O)NCC(=O)NC(C(C)NC(=O)CCN)C(=O)NC(C(C)C)C(=O)N3CCCC3C(=O)NC2C)cc1 (stereo not drawn) [Compound 280, C12-PABA-Amphomycin-9-(β-Ala)]", "false"],
  ["CCCCCCCCCCCC(=O)Nc1ccc(CC(=O)NC(CC(=O)O)C(=O)NC2C(=O)N3CCCCC3C(=O)NC(C(C)C(=O)O)C(=O)NC(CC(=O)O)C(=O)NCC(=O)NC(CC(=O)O)C(=O)NCC(=O)NC(C(C)N)C(=O)NC(C(C)C)C(=O)N3CCCC3C(=O)NC2C)cc1 (stereo not drawn) [Compound 119, C12-(p-Apa)-Amphomycin] (Lauroyl-[X1]D[ξAbu(βξ-NH2)][Pip][ξAsp(βξ-Me)]DGDG[ξAbu(3ξ-NH2)]VP; lactam 3-C; configuration not given here)", "false"],
  ["CCCCCCCCCCCCCCNC(=O)NC(CC(=O)O)C(=O)NC1C(=O)N2CCCCC2C(=O)NC(C(C)C(=O)O)C(=O)NC(CC(=O)O)C(=O)NCC(=O)NC(CC(=O)O)C(=O)NCC(=O)NC(C(C)NC(=O)CCN)C(=O)NC(C(C)C)C(=O)N2CCCC2C(=O)NC1C (stereo not drawn) [Compound 278]", "false"],
  ["CCCCCCCCCCCCCCC(=O)NC(CC(=O)O)C(=O)NC1C(=O)N2CCCCC2C(=O)NC(C(C)C(=O)O)C(=O)NC(CC(=O)O)C(=O)NCC(=O)NC(CC(=O)O)C(=O)NCC(=O)NC(C(C)NC(=O)CN)C(=O)NC(C(C)C)C(=O)N2CCCC2C(=O)NC1C (stereo not drawn) [Compound 3, C15-Amphomycin-9-Gly]", "true"],
  ["CCCCCCCCCCCCCCC(=O)NC(CC(=O)O)C(=O)NC1C(=O)N2CCCCC2C(=O)NC(C(C)C(=O)O)C(=O)NC(CC(=O)O)C(=O)NCC(=O)NC(CC(=O)O)C(=O)NCC(=O)NC(C(C)NC(=O)CNC(=O)[C@@H](N)CCCCN)C(=O)NC(C(C)C)C(=O)N2CCCC2C(=O)NC1C (stereo partly drawn) [Compound 4, C15-Amphomycin-9-Gly-Lys]", "false"]
]}
